study_system: Sphingosine 1-phosphate receptor 3 (Homo sapiens)
Sequence (Q99500 whole entry): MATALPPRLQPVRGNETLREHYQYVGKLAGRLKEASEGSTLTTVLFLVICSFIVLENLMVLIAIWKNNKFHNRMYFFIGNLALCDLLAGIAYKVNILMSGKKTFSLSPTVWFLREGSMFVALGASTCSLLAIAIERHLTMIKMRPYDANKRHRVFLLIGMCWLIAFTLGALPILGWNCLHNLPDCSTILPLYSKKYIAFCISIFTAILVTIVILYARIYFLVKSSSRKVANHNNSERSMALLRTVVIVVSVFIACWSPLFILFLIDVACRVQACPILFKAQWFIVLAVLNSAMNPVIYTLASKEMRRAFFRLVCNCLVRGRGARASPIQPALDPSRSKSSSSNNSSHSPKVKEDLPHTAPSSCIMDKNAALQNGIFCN
test_details: Agonist activity at S1PR3 (unknown origin) by HTRF assay
Each entry below lists one item and its recorded EC50 value.
parameter_measured: EC50

{"compound": "CCc1nc(-c2ccc(-c3ccc(CC[C@](N)(CO)COP(=O)(O)O)cc3)cc2)co1", "parameter_measured": "EC50", "result": "380 nM"}
{"compound": "CCc1nc(-c2ccc(-c3ccc(CCC(N)(CO)COP(=O)(O)O)cc3)cc2)co1 (racemic)", "parameter_measured": "EC50", "result": "523 nM"}
{"compound": "CCc1nc(-c2ccc(-c3ccc(CCC(N)(CO)CO)cc3)cc2)co1", "parameter_measured": "EC50", "result": "> 10000 nM"}
{"compound": "CCc1nc(-c2ccc(-c3ccc(CC[C@@](N)(CO)COP(=O)(O)O)cc3)cc2)co1", "parameter_measured": "EC50", "result": "736 nM"}
